The reported measurements were obtained from the supplement of paper PMC8728848.

- target-under-test: Fuc(a1-2)Gal(b1-3)GalNAc(a1-3)[Fuc(a1-2)]Gal(b1-4)Glc
- method-description: glycan array binding signal (z-score within array); higher = stronger binding
- condition-info: glycan notation: IUPAC condensed, linker removed
About 410 targets per protein were measured; listed, in parts, are those with the strongest signals and a random draw of the rest.
// classify(record): look up glycan array binding signal (z-score) in ranges class 0: < -0.3; class 1: ≥ -0.3 and < -0.2; class 2: ≥ -0.2

>>> assigned_label("Arath Fbox (Arabidopsis thaliana), NP_178341.1 (protein) EFTWGRKRRVKSESSPFDSFPEDCISYIISFTNPRDACVAATVSKTFESTVKSDIIWEKFLPADYESLIPPSRVFSSKKELYFSLCNDPVLFDDDKKSVWLEKASGKRCLMLSAMNLSIIWGDNPQYWQWIPIPESRFEKVAKLRDVCWFEIRGRTNTRVLSPRTRYSAYIVFKGVDKCYGFQNVAIEAAVGVVGQEPSRRLICFSEAIRRGRRNVVKPKQREDGWMEIELGEFFNDGGIMDNDEIEMSALETKQLNRKCGLIIQGIEIRPAKILAAAAASFLEQKLISEEDLNSAVDHHHHHH")
"class 0"
>>> assigned_label("DrGal3 (Danio rerio) (protein) MDLSDALDAPPQQNNQQAGGPVWPGQPANPVWPGQPANPTWPGQPNQPAWPGQPNQQWPGQPGQPTAPGWPGPAPQTGPYGAPGQAPQVLTVPLDFPLQNGAYNKMLITINGEVKPNAKQFTVNLRRGNDIAFHINPRFSEGGKPVIVRNSMIGNNWGREERELPSFPFVPGKPFEMKILITDTEYKVAVNKSHLLEFKHRVFELNQITGLSIYNDVTLSTVNVETLQ")
"class 1"
>>> assigned_label("Mermaid1 (Stilbonema majum) (protein) MGSSHHHHHHSSGLVPRGSHMAASGWLRSPQGTVVKLYRRSLSWSKADEFCKDVDGRLVVDRTADMHLFLIKNVLKEKKSRVWVGLRRTAPHSRTWIWSDGTRQNEDDLDANLWLRDEPNDAAGEEECALFMYSPWEKAWGLNDYLCRGGCRSYQFICEKWIR")
"class 2"
>>> assigned_label("DBA (Dolichos biflorus) (protein) ANIQSFSFKNFNSPSFILQGDATVSSGKLQLTKVKENGFPLRFPSGRAFYSSPIQIYDKFTGAVASWATSFTVKISAPSKASFADGIAFALVPVGSEPRRNGGYLGVFDSDVYNNSAQTVAVEFDTLSNSGWDPSMKHIGIDVNSIKSIATVSWDLANGENAEILITYNAATSLLVVSLVHPSRRTSYILSERVDITNELPEYVGVGFSATTGLSEGYIETHDVLSWSFASRLPDDSTAEPLDLARYLVRNVL")
"class 2"
>>> assigned_label("GSL-I-B4 (Griffonia simplicifolia) (protein) NFWSDVEDSIIFQGDANTTAGTLQLCKTNQYGTPLQWSAGRALYSDPVQLWDNKTESVASFYTEFTFFLKITGNGPADGLAFFLAPPDSDVKDAGEYLGLFNKSTATQPSKNQVVAVEFDTWTNPNFPEPSYRHIGINVNSIVSVATKRWEDSDIFSGKIATARISYDGSAEILTVVLSYPDGSDYILSHSVDMRQNLPESVRVGISASTGNNQFLTVYILSWRFSSNLQSTSVKAAMEPEITRTVV")
"class 2"
>>> assigned_label("LSL-150 (Laetiporus sulphureus), Q7Z8V1 (protein) MTDIYIPPEGLYFRLLGFASRQVIFARNSPSPDVGLSPVNDQATDQYFSLIYGTGEHAGLYAIKSKATGKVLFSRRPAEPYVGQIDGDGRYPDNWFKIEPGKTYLSKYFRLVQPSTGTALVSRTHLQPYFWNHPQTEVFDDQYFTFLFEDHHHHHH")
"class 1"
>>> assigned_label("EULS2 M1 (Oryza sativa) (protein) MVYCRANPNYAMTARNGAVVLAPANPKDEYQHWIKDMRWSTSIKDEEGYPAFALVNKATGQAIKHSLGQSHPVRLVPYNPEVMDESVLWTESRDVGNGFRCIRMVNNIYLNFDAFHGDKYHGGVRDGTDIVLWKLCEGDNQRWKIQPYYILEQKLISEEDLNSAVDHHHHHH")
"class 0"
>>> assigned_label("LlpA (Arthrobacter sp) (protein) MGSSHHHHHHSSGLVPRGSHMTLHPETALRPGAAATSPNSRYRLLYQTDGNLVLYGPDGPLWDSGTNGHGAGACIMQADGNLVLYGPNDEYVWDTETDNNPGSRLVIQDDGNAVIYRPDGSPLWATETCQPPGSADSHVLQSGSTLTPTHGIRSANGLYGLLYQTDGNLVFYGPDGPLWDSGTNGRGAGACIMQPDGNLVLYGPHDEYVWDTETDNNPGSRLVIQDDGNAVIYRPDGNPTWVTGTH")
"class 0"
